- test-target: wild type CaMKII kinase domain (residues 1–283) (Drosophila, UniProt Q00168 1-283)
- Sequence (Q00168 1-283): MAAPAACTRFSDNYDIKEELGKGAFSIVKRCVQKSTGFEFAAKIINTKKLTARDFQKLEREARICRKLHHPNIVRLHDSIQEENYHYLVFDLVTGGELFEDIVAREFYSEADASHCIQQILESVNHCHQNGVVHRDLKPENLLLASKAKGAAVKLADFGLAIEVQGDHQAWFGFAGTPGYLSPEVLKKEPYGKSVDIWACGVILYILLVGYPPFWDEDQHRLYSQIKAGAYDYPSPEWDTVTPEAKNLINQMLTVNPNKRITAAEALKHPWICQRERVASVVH
- assay-text: ITC
No end group written: not given here. MBP = not defined here
Answer each item with its documented Kd.
Answers are plain numbers, in µM.

Worked cases, answers included:
>  <binder>
MBP-dEAG_(long) R784A (domain or fragment, Drosophila, UniProt Q02280 768-820, looked up) VFPKAPKLQASQATLAAQDTIDEGGEVDSSPPSRDSRVVIEGAAVSSATVGPS

>  <Kd, µM>
47

$$$$
>  <binder>
MBP-dEAG_(long) E793A (domain or fragment, Drosophila, UniProt Q02280 768-820, looked up) VFPKAPKLQASQATLARQDTIDEGGAVDSSPPSRDSRVVIEGAAVSSATVGPS

>  <Kd, µM>
1.68

$$$$
>  <binder>
MBP-dEAG_(long) I788A (domain or fragment, Drosophila, UniProt Q02280 768-820, looked up) VFPKAPKLQASQATLARQDTADEGGEVDSSPPSRDSRVVIEGAAVSSATVGPS

>  <Kd, µM>
80.3

$$$$
>  <binder>
MBP-dEAG_(long) (wild-type Drosophila EAG CaMKII-binding fragment, residues 768 to 820, fused to maltose-binding protein) (domain or fragment, UniProt Q02280 768-820, looked up, reading uncertain) {MBP}-VFPKAPKLQASQATLARQDTIDEGGEVDSSPPSRDSRVVIEGAAVSSATVGPS

>  <Kd, µM>
0.674

$$$$
>  <binder>
MBP-dEAG_(long) L782A (domain or fragment, Drosophila, UniProt Q02280 768-820, looked up) VFPKAPKLQASQATAARQDTIDEGGEVDSSPPSRDSRVVIEGAAVSSATVGPS

>  <Kd, µM>
24.6

$$$$
>  <binder>
MBP-dEAG_(long) E790A (domain or fragment, Drosophila, UniProt Q02280 768-820, looked up) VFPKAPKLQASQATLARQDTIDAGGEVDSSPPSRDSRVVIEGAAVSSATVGPS

>  <Kd, µM>
2.43

$$$$
>  <binder>
MBP-dEAG_(long) D789A (domain or fragment, Drosophila, UniProt Q02280 768-820, looked up) VFPKAPKLQASQATLARQDTIAEGGEVDSSPPSRDSRVVIEGAAVSSATVGPS

>  <Kd, µM>
7.3

$$$$

Okay, now this binder:
I am curious: what Kd value has been reported for MBP-dEAG_(long) Q785A (domain or fragment, Drosophila, UniProt Q02280 768-820, looked up) VFPKAPKLQASQATLARADTIDEGGEVDSSPPSRDSRVVIEGAAVSSATVGPS ?
12.6
